The entries below come with measured Selectivity (Q141/Q40), CE values attached.
biological target: wild type human growth hormone (human, UniProt P01241 27-217); experiment: cell-based or functional assay
Sequence (P01241 27-217): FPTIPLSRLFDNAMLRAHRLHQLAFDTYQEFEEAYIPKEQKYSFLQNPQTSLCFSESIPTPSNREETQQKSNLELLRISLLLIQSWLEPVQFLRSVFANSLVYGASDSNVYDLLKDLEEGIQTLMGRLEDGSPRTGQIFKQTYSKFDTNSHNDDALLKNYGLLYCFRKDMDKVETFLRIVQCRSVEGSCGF
Respond numerically, and do not add a unit to the figure.

Binder | Selectivity (Q141/Q40), CE
GlyPro-mTGase from S. ladakanum (enzyme) GPDSDERVTPPAEPLDRMPDPYRPSYGRAETIVNNYIRKWQQVYSHRDGRKQQMTEEQREWLSYGCVGVTWVNSGQYPTNRLAFAFFDEDKYKNELKNGRPRSGETRAEFEGRVAKDSFDEAKGFQRARDVASVMNKALENAHDEGAYLDNLKKELANGNDALRNEDARSPFYSALRNTPSFKDRNGGNHDPSKMKAVIYSKHFWSGQDRSGSSDKRKYGDPEAFRPDRGTGLVDMSRDRNIPRSPTSPGESFVNFDYGWFGAQTEADADKTVWTHGNHYHAPNGSLGAMHVYESKFRNWSDGYSDFDRGAYVVTFVPKSWNTAPDKVKQGWP | 10.3

Name the reported Selectivity (Q141/Q40), CE value associated with the binder GlyPro-mTGase_Y62H_Y75F from S. ladakanum (enzyme) GPDSDERVTPPAEPLDRMPDPYRPSYGRAETIVNNYIRKWQQVYSHRDGRKQQMTEEQREWLSHGCVGVTWVNSGQFPTNRLAFAFFDEDKYKNELKNGRPRSGETRAEFEGRVAKDSFDEAKGFQRARDVASVMNKALENAHDEGAYLDNLKKELANGNDALRNEDARSPFYSALRNTPSFKDRNGGNHDPSKMKAVIYSKHFWSGQDRSGSSDKRKYGDPEAFRPDRGTGLVDMSRDRNIPRSPTSPGESFVNFDYGWFGAQTEADADKTVWTHGNHYHAPNGSLGAMHVYESKFRNWSDGYSDFDRGAYVVTFVPKSWNTAPDKVTQGWP 36.2

Where these numbers come from: patent US20090318349A1
